Target: UniProt P10828
Assay: In vitro TR-β activity (in-house protocol)
Type: cell-based
Details: Conc. 10 nM; read-out: TR-β Fold Induction w.r.t T3(100 nm)
Answer each item with its documented fold induction at 0.01 µM.
Numbers only.

Here are 6 molecules together with their reported answers.
* O=C(O)CN(C(=O)Oc1ccc(O)cc1)c1cc(Cl)c(Oc2ccc(O)c(S(=O)(=O)NC3CCC3)c2)c(Cl)c1 | 17
* CC(C)c1cc(Oc2c(Cl)cc(N(CC(=O)O)C(=O)Oc3ccc(O)cc3)cc2Cl)ccc1O | 73.7
* O=C(O)CN(C(=O)Oc1ccc(O)cc1)c1cc(Cl)c(Oc2ccc(O)c(S(=O)(=O)N3CCOCC3)c2)c(Cl)c1 | 12.2
* Cc1cc(N(CC(=O)O)CC(=O)O)cc(C)c1Oc1ccc(O)c(C(C)C)c1 | 66.7
* O=C(O)CN(C(=O)Oc1ccc(O)cc1)c1cc(Br)c(Oc2ccc(O)c(S(=O)(=O)NC3CC4CCC3C4)c2)c(Br)c1 (stereo not shown) | 12.9
* CCOC(=O)N(CC(=O)O)c1cc(Cl)c(Oc2ccc(O)c(C(=O)c3ccc(C(C)(C)C)cc3)c2)c(Cl)c1 | 40

Next:
For the molecule O=C(O)CN(CC(=O)O)c1cc(Cl)c(Oc2ccc(O)c(S(=O)(=O)N3CCCCC3)c2)c(Cl)c1 , what fold induction at 0.01 µM is on record?
11.9

###

Target: TR-β (Homo sapiens)
Sequence (P10828 whole entry): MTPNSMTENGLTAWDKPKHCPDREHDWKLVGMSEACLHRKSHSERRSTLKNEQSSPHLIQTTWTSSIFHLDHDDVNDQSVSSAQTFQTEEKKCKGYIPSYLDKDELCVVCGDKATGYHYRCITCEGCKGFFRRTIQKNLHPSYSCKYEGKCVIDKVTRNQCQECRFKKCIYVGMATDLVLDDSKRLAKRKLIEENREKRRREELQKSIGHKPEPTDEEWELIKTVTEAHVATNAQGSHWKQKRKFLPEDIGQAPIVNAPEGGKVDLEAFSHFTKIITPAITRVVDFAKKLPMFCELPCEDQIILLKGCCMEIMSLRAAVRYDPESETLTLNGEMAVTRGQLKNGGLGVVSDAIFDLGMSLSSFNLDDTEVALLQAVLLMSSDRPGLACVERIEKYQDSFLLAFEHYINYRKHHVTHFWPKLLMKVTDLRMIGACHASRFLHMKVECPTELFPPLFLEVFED
Assay: In vitro TR-β activity (in-house protocol)
Type: cell-based
Details: Conc. 1000 nM; read-out: TR-β Fold Induction w.r.t T3(100 nm)
Answer each item with its documented fold induction at 1 µM.
Give bare numbers.

- O=C(O)CN(C(=O)Oc1ccc(O)cc1)c1cc(Cl)c(Oc2ccc(O)c(S(=O)(=O)N3CCOCC3)c2)c(Cl)c1: 85.2

For each listed entry, give its fold induction at 1 µM.
1. CC(C)c1cc(Oc2c(Cl)cc(N(CC(=O)O)CC(=O)O)cc2Cl)ccc1O
2. CCOC(=O)N(CC(=O)O)c1cc(Cl)c(Oc2ccc(O)c(C(=O)c3ccc(C(C)(C)C)cc3)c2)c(Cl)c1

1: 75.2; 2: 75

For each listed entry, give its fold induction at 1 µM.
1. O=C(O)CN(C(=O)Oc1ccc(O)cc1)c1cc(Cl)c(Oc2ccc(O)c(S(=O)(=O)NC3CCC3)c2)c(Cl)c1
2. O=C(O)CN(C(=O)Oc1ccc(O)cc1)c1cc(Br)c(Oc2ccc(O)c(S(=O)(=O)NC3CC4CCC3C4)c2)c(Br)c1 (stereo not drawn)
3. CCOC(=O)N(CC(=O)O)c1cc(Cl)c(Oc2ccc(O)c(C(C)(C)C)c2)c(Cl)c1
4. CCc1cc(Oc2c(Cl)cc(N(CC(=O)O)C(=O)Oc3ccc(O)cc3)cc2Cl)ccc1O

1: 102; 2: 91.7; 3: 75; 4: 37.6

For each listed entry, give its fold induction at 1 µM.
1. CCOC(=O)N(CC(=O)O)c1cc(C)c(Oc2ccc(O)c(C(C)CC)c2)c(C)c1 (stereo not drawn)
2. CN(C)S(=O)(=O)c1cc(Oc2c(Cl)cc(N(CC(=O)O)C(=O)Oc3ccc(O)cc3)cc2Cl)ccc1O
3. CCC(C)c1cc(Oc2c(C)cc(N(CC(=O)O)CC(=O)O)cc2C)ccc1O (stereo not drawn)
4. CCOC(=O)N(CC(=O)O)c1cc(Cl)c(Oc2ccc(O)c(C(=O)c3ccc(Cl)cc3)c2)c(Cl)c1
5. Cc1cc(N(CC(=O)O)C(=O)Oc2ccc(O)cc2)cc(C)c1Oc1ccc(O)c(C(C)C)c1
6. CCOC(=O)N(CC(=O)O)c1cc(Cl)c(Oc2ccc(O)c(C(=O)c3ccc(F)cc3)c2)c(Cl)c1

42.6
81.4
148
81.2
86
66.8

For each listed entry, give its fold induction at 1 µM.
1. CCOC(=O)N(CC(=O)O)c1cc(Cl)c(Oc2ccc(O)c(C(=O)c3cccc(Cl)c3)c2)c(Cl)c1
2. CC(C)(C)c1cc(Oc2c(Cl)cc(N(CC(=O)O)CC(=O)O)cc2Cl)ccc1O

1. 51.7
2. 55.7
